Data origin: ChEMBL document CHEMBL1201862

Would you mind telling me the reported GI50 of each entry?
System: TK-10
Assay: NCI tumour cell line growth inhibition, 48 h
The source made the active and inactive calls. Cut-off read from the data, not from the text of the source: active = GI50 up to about 1.1 µM and inactive = higher.

Request: I would be grateful if you could share the reported GI50 for `N=C(N)NS(=O)(=O)c1ccc(NC(=O)c2ccc3nc4ccccc4c(Nc4ccc(S(=O)(=O)N=C(N)N)cc4)c3c2)cc1` .
Response: > 100 µM (inactive)

Request: Field entry: `O=C1c2c(ccc3c2CCC3)CC12Cc1cc3c(cc1C2)CCC3`
Response: > 100 µM (inactive)

Request: Field entry: COc1ccc2c3c(ccc2c1)NC(C(=O)O)CC3 (stereo unspecified)
Response: 52.1 µM (inactive)

Request: Field entry: `COc1cc2nc(-c3cccs3)[nH]c(=O)c2cc1OC`
Response: > 100 µM (inactive)

Request: Field entry: `NC(=O)c1c(-c2ccccc2)c(-c2ccccc2)cc2c(=O)c3ccccc3[nH]c12`
Response: 18.5 µM (inactive)

Request: Field entry: `CCOC(=O)n1c2ccccc2c2c(O)c(OC)c3c(c21)C(=O)NC3=O`
Response: 52.1 µM (inactive)

Request: Field entry: `C[N+]1(C)C[C@@H](O)C[C@@H]1C(=O)[O-]`
Response: > 100 µM (inactive)

Request: Field entry: C=CCC1C2CCC(O[Si](C(C)C)(C(C)C)C(C)C)(C(C(=O)OC)C2)C1O (stereo unspecified)
Response: 14.4 µM (inactive)

Request: Field entry: `Cc1cc(NS(=O)(=O)c2ccc(NC(=O)c3cccc4c(NNc5ccc(S(N)(=O)=O)cc5)c5ccccc5nc34)cc2)no1`
Response: 83.2 µM (inactive)

Request: Field entry: `O=[N+]([O-])c1ccc2sc(/C=N/c3ccccn3)cc2c1`
Response: > 100 µM (inactive)

Request: Field entry: COc1cc2ccc1-c1cc(ccc1O)CC1c3cc4c(cc3CCN1C)Oc1c(OC)cc3c(c1O4)C(C2)N(C)CC3 (stereo unspecified)
Response: 12.2 µM (inactive)
